# subject_of_test: T1, Macaca fascicularis (mf) RET.mmh (Macaca fascicularis)
# T1 construct: also called monkey RET
# T1 chain: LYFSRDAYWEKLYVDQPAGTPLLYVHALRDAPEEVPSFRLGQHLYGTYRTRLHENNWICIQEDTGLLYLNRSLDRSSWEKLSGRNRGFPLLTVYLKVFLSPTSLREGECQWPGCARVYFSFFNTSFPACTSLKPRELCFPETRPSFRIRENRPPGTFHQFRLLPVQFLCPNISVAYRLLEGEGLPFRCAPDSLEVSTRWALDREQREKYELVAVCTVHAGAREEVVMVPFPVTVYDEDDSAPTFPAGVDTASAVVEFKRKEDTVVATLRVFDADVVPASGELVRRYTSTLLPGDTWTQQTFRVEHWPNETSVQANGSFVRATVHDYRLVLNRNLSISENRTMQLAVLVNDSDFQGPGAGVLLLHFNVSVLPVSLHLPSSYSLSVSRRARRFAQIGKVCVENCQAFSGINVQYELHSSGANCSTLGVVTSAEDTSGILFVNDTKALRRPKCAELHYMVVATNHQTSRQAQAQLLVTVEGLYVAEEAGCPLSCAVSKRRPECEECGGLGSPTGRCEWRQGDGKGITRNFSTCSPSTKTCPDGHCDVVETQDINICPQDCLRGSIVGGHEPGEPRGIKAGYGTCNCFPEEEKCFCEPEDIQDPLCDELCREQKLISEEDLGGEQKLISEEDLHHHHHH
# assay_comment: SPR Biacore T200, mAb capture, 37 C
observed_property: kon (M⁻¹ s⁻¹)
Respond with the bare value in M⁻¹ s⁻¹.

Assign kon to the following record: H4H8046P (antibody, human IgG4, V domains shown, human IgG4 Fc (H4H prefix)) VH: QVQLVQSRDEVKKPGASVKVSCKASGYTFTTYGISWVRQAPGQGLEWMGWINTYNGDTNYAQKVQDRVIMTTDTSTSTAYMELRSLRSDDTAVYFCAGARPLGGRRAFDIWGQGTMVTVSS VL: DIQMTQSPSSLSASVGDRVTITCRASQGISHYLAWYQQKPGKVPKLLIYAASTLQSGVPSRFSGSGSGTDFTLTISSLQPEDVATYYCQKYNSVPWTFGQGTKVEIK
704000
